# measurement.target: G9a (Homo sapiens, UniProt Q96KQ7)
# Sequence (Q96KQ7 1-1210): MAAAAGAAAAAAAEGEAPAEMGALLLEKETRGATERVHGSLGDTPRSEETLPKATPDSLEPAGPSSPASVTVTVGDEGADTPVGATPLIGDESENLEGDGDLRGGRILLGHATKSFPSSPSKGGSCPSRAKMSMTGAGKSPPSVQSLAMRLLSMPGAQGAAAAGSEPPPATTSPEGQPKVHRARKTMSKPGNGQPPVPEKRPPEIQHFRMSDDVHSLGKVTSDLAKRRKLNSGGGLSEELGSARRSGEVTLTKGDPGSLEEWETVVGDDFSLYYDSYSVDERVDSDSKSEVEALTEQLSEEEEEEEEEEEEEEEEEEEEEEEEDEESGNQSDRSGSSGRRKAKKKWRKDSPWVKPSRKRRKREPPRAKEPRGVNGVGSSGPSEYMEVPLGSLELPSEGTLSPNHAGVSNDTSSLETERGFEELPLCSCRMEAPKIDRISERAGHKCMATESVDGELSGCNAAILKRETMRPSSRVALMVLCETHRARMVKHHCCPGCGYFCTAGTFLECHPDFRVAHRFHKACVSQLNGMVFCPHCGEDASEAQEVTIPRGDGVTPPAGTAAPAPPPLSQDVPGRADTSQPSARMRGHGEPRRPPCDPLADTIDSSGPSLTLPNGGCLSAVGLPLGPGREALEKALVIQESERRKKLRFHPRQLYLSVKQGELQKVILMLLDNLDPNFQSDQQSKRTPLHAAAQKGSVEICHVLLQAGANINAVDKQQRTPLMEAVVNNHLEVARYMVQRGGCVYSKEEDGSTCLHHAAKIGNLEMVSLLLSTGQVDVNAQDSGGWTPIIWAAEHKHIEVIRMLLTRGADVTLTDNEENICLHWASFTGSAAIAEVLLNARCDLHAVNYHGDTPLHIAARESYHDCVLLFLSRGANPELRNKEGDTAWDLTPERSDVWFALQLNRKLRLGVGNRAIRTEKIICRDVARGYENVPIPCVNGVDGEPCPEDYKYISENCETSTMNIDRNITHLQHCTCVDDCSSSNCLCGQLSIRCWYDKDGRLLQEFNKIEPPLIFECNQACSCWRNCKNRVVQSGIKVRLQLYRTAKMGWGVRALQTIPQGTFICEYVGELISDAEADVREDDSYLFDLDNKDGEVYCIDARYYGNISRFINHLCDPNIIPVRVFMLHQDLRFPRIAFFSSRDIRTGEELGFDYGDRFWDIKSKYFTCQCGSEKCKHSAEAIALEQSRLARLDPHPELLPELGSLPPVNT
# test.method.notes: G9a AlphaLISA enzymatic activity assay
# Type: biochemical
# experimental.parameters: 0.15 nM G9a, 15 uM S-adenosyl-methionine, 100 nM biotinylated histone 3 peptide (1-21), 1 hour at room temperature; read-out: G9a in (uM) (IC50, concentration that produced 50% inhibition)
Counter-ions that a name gives are not always drawn.
endpoint.label: IC50 (µM)

COc1cc2c3c(c(NC(C)C)nc2cc1OCCCN1CCCC1)CC(O)CC3 (stereo not shown) [Example 68, trifluoroacetate]; 0.11

I = COc1cc2c3c(c(NCC4CCC4)nc2cc1OCCCN1CCCC1)CCC3 [Example 49, formate]
II = CNc1nc2cc(OCCCN3CCCC3)c(OC)cc2c2c1CC(O)CC2 (stereo not shown) [Example 61]
III = COc1cc2c3c(c(NC4CC4)nc2cc1OCCCN1CCCC1)COCC3 [Example 55, formate]
Prompt: List by increasing IC50. Returns: the labels arranged in the requested order.
Response: I, II, III
(I: 0.046 µM, II: 0.14 µM, III: 0.32 µM)
